- assay_target: FAD-linked sulfhydryl oxidase ALR (Homo sapiens)
- Sequence (P55789 whole entry): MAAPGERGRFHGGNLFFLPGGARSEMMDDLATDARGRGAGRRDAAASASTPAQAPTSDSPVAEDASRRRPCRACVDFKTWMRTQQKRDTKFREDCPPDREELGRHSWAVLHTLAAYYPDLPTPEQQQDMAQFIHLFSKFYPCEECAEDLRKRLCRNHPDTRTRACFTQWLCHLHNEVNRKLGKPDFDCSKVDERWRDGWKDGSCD
- assay_info: inhibitors of human ALR sulfhydryl oxidase, dose response, biochemical, H2O2 detection, luminescence, cherry-pick (AID 493248)
Active and inactive are the calls of the source.
measurement_kind: AC50

COc1ccc(N2CCN(C(=O)c3ccccc3N(C)S(=O)(=O)c3ccccc3)CC2)cc1	8.08 µM (active)
O=C(O)Cc1ccc(NCc2ccccc2Cl)cc1	4.81 µM (active)
COc1ccc(CNC(=O)c2ccc3c(c2)N(C)CCS3)cc1	15.4 µM (active)

Find the measured AC50 of CCc1n[nH]c(C(=O)N2CCCC(Nc3ccc(C(C)C)cc3)C2)c1C (stereo not given) with FAD-linked sulfhydryl oxidase ALR (Homo sapiens) as test system.
3.61 µM (active)

Find the measured AC50 of COc1ccc(N2CCN(CCNC(=O)Nc3ccc([N+](=O)[O-])cc3OC)CC2)cc1 with FAD-linked sulfhydryl oxidase ALR (Homo sapiens) as test system.
2.24 µM (active)

Find the measured AC50 of COc1ccc(N/N=C(\C#N)C(=N)N2CCCCC2)cc1 with FAD-linked sulfhydryl oxidase ALR (Homo sapiens) as test system.
0.077 µM (active)

Find the measured AC50 of Cc1ccc(NC2CCCN(C(=O)c3ccnc(Cl)c3)C2)cc1C (stereo not given) with FAD-linked sulfhydryl oxidase ALR (Homo sapiens) as test system.
3.32 µM (active)

Find the measured AC50 of Cc1ccc2[nH]cc(/C=C/c3cc[n+](C)cc3)c2c1 with FAD-linked sulfhydryl oxidase ALR (Homo sapiens) as test system.
1.49 µM (active)

Find the measured AC50 of Cn1c(S)nnc1CNS(=O)(=O)c1ccc(Br)cc1 with FAD-linked sulfhydryl oxidase ALR (Homo sapiens) as test system.
4.95 µM (active)

Find the measured AC50 of CC(NC(=O)c1ccc(N(C)C)cc1)C(c1cccs1)N1CCN(C)CC1 (stereo not given) with FAD-linked sulfhydryl oxidase ALR (Homo sapiens) as test system.
1.24 µM (active)

###

Reported IC50 values, Glyceraldehyde-3-phosphate dehydrogenase (Homo sapiens, UniProt P04406).

Example compounds with recorded IC50:
COC(=O)c1ccccc1NC(=O)CSc1nnc(-c2ccccc2Cl)[nH]1	> 100 µM (not active)
O=C1C(Cl)=C(N2CCN(Cc3ccccc3)CC2)C(=O)N1c1cccc(C(F)(F)F)c1	> 50 µM (inconclusive)
C[C@H]1CN(C2=C(Cl)C(=O)N(c3ccc(Cl)nc3)C2=O)CCN1	> 50 µM (inconclusive)
Cc1ccc(Cl)c(N2C(=O)C(Cl)=C(N3CCOCC3)C2=O)c1Cl	> 10 µM (inconclusive)
O=C(c1cc(-c2cc(F)c(Cl)cc2Cl)[nH]n1)N1CCCCC1	> 100 µM (not active)

Find the measured IC50 of Nc1nc(-c2ccccc2)cn1/N=C/c1cccc([N+](=O)[O-])c1 with Glyceraldehyde-3-phosphate dehydrogenase (Homo sapiens, UniProt P04406) as test system.
Sequence (P04406 whole entry): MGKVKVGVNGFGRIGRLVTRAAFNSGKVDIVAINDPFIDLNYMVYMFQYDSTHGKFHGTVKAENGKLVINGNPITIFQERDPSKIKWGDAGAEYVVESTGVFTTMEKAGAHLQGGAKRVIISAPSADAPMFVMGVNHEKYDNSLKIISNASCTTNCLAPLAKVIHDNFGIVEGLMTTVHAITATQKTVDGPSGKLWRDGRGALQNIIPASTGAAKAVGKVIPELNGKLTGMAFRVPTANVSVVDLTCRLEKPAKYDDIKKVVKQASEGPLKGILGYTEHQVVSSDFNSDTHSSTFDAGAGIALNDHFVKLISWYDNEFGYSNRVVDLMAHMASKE
> 100 µM (not active)

Find the measured IC50 of Cc1ccc2c(c1Cl)NC(C(=O)O)C1CC(Sc3ccccc3[N+](=O)[O-])C(Cl)C21 (stereo not drawn) with Glyceraldehyde-3-phosphate dehydrogenase (Homo sapiens, UniProt P04406) as test system.
> 100 µM (not active)

Find the measured IC50 of CCCCN1CCN(C2=C(Cl)C(=O)N(c3ccc(Cl)c(Cl)c3)C2=O)CC1 with Glyceraldehyde-3-phosphate dehydrogenase (Homo sapiens, UniProt P04406) as test system.
> 100 µM (not active)

###

Attribute: IC50
- assay_target: UniProt P41145
- Sequence (P41145 whole entry): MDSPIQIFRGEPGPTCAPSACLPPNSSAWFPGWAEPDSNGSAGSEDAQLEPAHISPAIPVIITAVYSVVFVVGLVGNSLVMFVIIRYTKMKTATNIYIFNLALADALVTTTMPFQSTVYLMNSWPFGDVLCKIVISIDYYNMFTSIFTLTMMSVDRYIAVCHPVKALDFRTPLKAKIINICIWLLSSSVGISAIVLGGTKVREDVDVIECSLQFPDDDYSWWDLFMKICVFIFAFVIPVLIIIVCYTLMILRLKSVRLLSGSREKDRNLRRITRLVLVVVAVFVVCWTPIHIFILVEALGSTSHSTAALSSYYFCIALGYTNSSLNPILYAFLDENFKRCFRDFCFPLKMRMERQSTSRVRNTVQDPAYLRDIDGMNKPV
- Assay type: functional
Activity calls are given as the source filed them.

Example compounds with recorded IC50:
CC(=O)N1N=C(c2cccs2)CC1c1cccc([N+](=O)[O-])c1 (centres undefined)	14.4 µM (active)
CC1=C/C(=N\NC(=S)Nc2cccnc2)CC(C)(C)C1	9.46 µM (active)
CNc1cc(Cl)c2nonc2c1[N+](=O)[O-]	2.96 µM (active)

Field: next compound
Using the record for CCC(=O)OCCNc1cc(Sc2nc3ccccc3[nH]2)c2nonc2c1[N+](=O)[O-] , state its measured IC50.
2.56 µM (active)

###

- assay_target: Fatty acid synthase (Homo sapiens, UniProt P49327)
- Sequence (P49327 whole entry, the tested form may be a part): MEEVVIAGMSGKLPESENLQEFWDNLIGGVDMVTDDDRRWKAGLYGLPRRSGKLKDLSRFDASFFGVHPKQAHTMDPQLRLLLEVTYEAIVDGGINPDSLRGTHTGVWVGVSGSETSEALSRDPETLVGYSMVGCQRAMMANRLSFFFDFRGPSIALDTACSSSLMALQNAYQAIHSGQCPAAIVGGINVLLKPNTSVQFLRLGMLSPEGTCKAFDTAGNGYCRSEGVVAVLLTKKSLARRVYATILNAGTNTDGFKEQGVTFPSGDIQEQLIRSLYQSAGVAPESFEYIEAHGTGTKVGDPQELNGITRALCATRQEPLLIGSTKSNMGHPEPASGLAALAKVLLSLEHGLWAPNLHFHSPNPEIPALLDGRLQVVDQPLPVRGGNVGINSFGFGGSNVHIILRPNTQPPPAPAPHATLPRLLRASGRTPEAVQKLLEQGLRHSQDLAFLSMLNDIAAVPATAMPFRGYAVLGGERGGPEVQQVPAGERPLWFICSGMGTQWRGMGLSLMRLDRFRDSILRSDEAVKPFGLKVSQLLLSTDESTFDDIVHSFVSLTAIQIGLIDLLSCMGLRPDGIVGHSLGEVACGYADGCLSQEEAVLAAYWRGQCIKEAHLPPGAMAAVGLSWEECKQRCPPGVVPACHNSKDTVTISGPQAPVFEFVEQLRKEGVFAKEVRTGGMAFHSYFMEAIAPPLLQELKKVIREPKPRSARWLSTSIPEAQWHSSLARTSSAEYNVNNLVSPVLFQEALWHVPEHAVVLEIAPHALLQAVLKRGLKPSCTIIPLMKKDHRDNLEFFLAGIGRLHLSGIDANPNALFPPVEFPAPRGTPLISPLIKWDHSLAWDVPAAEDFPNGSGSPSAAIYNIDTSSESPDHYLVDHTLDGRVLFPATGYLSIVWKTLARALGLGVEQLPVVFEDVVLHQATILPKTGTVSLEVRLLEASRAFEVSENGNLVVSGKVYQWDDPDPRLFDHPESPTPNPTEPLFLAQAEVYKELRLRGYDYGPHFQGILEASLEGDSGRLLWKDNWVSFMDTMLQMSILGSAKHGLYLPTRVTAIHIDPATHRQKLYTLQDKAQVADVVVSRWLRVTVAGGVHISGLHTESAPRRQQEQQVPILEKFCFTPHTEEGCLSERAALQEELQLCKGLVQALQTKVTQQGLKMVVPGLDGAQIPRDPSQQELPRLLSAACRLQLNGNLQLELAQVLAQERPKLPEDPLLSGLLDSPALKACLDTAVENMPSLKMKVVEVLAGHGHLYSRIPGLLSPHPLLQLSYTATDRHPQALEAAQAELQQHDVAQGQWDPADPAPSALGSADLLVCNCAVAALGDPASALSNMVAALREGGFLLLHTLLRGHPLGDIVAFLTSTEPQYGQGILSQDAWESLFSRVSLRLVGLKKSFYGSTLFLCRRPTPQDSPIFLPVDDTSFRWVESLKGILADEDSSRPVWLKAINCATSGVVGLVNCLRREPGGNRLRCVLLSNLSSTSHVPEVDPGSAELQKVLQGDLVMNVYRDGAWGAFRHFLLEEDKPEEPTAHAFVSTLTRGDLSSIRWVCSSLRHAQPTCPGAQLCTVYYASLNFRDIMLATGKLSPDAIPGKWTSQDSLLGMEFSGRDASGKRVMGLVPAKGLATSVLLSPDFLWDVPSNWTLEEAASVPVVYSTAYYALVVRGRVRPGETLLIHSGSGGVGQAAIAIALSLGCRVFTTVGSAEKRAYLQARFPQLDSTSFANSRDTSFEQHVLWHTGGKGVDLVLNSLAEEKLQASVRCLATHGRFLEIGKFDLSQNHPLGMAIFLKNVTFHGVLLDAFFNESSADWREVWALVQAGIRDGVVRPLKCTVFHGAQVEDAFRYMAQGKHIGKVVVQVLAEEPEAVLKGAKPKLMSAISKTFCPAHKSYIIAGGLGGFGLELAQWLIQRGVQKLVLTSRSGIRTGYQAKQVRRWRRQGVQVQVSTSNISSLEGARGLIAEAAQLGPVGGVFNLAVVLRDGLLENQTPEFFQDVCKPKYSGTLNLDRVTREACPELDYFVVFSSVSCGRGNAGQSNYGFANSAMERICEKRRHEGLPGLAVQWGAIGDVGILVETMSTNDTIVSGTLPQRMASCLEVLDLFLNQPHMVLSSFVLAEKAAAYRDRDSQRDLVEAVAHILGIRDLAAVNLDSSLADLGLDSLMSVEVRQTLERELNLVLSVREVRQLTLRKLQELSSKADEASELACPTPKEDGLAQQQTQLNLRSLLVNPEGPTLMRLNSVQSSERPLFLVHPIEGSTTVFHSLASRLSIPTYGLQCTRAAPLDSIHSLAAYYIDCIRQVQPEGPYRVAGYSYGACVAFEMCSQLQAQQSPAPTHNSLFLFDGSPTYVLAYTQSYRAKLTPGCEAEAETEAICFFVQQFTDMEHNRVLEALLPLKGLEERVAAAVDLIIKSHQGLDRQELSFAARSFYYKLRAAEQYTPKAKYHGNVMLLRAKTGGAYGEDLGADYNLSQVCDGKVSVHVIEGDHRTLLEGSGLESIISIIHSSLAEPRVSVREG
- assay_info: FAS thioesterase domain inhibitors, dose response, biochemical, endpoint fluorescence intensity, uHTS hits (AID 624327);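 also: fluorescence from hydrolysis of an O-methyl fluorescein acyl ester substrate by the enzyme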
- Assay type: functional
Calls of active or inactive are those of the source.
measurement_kind: IC50

Example molecules with recorded IC50:
Cc1ccc(NC(=O)C2(c3ccc([N+](=O)[O-])cc3)CCCC2)cc1	14.6 µM (active)
CCOC(=O)c1ccc(NC(=O)c2[nH]cnc2C(=O)N[C@@H](CCCCNC(=O)OC(C)(C)C)C(=O)OC(C)(C)C)cc1	0.539 µM (active)
O=C(COC(=O)CCc1ccccc1)Nc1cc([N+](=O)[O-])ccc1F	5.19 µM (active)

Using the record for O=C(O)CSc1cc(C(=O)c2ccccc2O)cn2c(=O)c3c(-c4ccccc4)csc3nc12 , state its measured IC50.
4.85 µM (active)

Using the record for CC(C)(C)c1ccc(C(=O)N/C(=C\c2cccc([N+](=O)[O-])c2)C(=O)Nc2cccc(C(=O)O)c2)cc1 , state its measured IC50.
2.44 µM (active)

Using the record for C=CCOc1c(Br)cc(/C=N/Nc2ccc(C(=O)O)cc2)cc1OCC , state its measured IC50.
12.6 µM (active)

Using the record for CCC(=O)OCCNc1cc(Sc2nc3ccccc3[nH]2)c2nonc2c1[N+](=O)[O-] , state its measured IC50.
2.04 µM (active)

Using the record for CC(NC(=O)COC(=O)c1cc([N+](=O)[O-])ccc1N1CCOCC1)c1ccc(F)cc1 (stereo not drawn) , state its measured IC50.
1.95 µM (active)

###

- assay_target: DNA dC->dU-editing enzyme APOBEC-3A (Homo sapiens, UniProt P31941)
- Sequence (P31941 whole entry): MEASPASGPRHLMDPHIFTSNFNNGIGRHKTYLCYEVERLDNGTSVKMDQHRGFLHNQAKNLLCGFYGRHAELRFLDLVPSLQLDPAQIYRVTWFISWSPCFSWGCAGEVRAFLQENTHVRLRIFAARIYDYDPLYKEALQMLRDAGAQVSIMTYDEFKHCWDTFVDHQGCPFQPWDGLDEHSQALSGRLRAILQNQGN
- assay_info: Dose Response confirmation of small molecule APOBEC3A DNA Deaminase Inhibitors via a fluorescence-based single-stranded DNA deaminase assay. [Related pubchem assays (depositor defined):AID493011, AID493024]
- Type: functional
Activity calls are given as the source filed them.
measurement_kind: IC50

Example compounds with recorded IC50:
Cc1ccc2[nH]cc(/C=C/c3cc[n+](C)cc3)c2c1	3.49 µM (active)
CSc1nnc(-c2ccncc2)n1CCCN1CCCC1=O	2.76 µM (active)
C[n+]1ccc(C(=O)Nc2ccccc2Cl)cc1	2.01 µM (active)
CCN1CCN(S(=O)(=O)c2ccc(Cl)c(C(=O)N(CC)CC(=O)Nc3ccc(OC)cc3)c2)CC1	3.4 µM (active)

Using the record for CN1CCN(S(=O)(=O)c2cccc(C(=O)N(C)CC(=O)Nc3ccc(F)c(F)c3F)c2)CC1 , state its measured IC50.
3.94 µM (active)

###

Attribute: AC50
- assay_info: HEK293 cell cytotoxicity, dose response, cytotoxicity control, plate reader, cherry-picked samples (AID 743446)
- Type: functional, cell-based
Activity calls are given as the source filed them.

Example molecules with recorded AC50:
O=C(COc1ccc2c(c1)OCO2)Nc1nccs1	20.6 µM (active)
CCOc1cc(/C=C/C(=O)Nc2ccc(C(=O)NCCN(CC)CC)cc2)ccc1OCC(C)C	7.83 µM (active)
O=S(=O)(c1ccc(F)cc1)c1snnc1-c1ccccc1	4.15 µM (active)

Using the record for Cn1nnnc1Sc1ncnc2scc(-c3ccccc3C(F)(F)F)c12 , state its measured AC50.
27.9 µM (active)

###

- assay_target: Nonstructural protein 1 (Influenza A virus, UniProt Q194T2)
- Sequence (Q194T2 whole entry): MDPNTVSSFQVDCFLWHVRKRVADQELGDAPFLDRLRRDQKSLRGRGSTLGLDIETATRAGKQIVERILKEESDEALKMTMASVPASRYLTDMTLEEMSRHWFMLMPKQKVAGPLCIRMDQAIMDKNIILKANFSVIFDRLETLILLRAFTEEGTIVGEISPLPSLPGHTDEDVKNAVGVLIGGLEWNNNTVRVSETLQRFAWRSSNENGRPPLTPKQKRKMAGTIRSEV
- Type: functional, Influenza A virus (A/California/07/2009(H1N1))
Active and inactive are the calls of the source.
measurement_kind: IC50

Using the record for COc1cc(OC)c2c(c1C(CCN1CCOCC1)c1ccc(N(C)C)cc1)OC(=O)CC2c1ccc(N(C)C)cc1 (configuration not stated) , state its measured IC50.
14.5 µM (active)

###

- assay_target: Eukaryotic translation initiation factor 4H (Homo sapiens, UniProt Q15056)
- assay_info: eIF4H inhibition in translation initiation, SAR follow-up (AID 435011)
- Assay type: functional
Activity calls are given as the source filed them.
Outcomes you can answer with include only these: active, inactive

COc1ccc(Cl)cc1NC(=O)COC(=O)c1ccc(NC(N)=O)cc1	inactive

In this assay, the call recorded for CC(=O)Nc1cccc(NC(=O)CSc2ccc(-c3ccco3)nn2)c1 was what?
active

In this assay, the call recorded for O=C(COc1ccc(C=NNC(=O)c2ccc(O)cc2)cc1)Nc1ccc([N+](=O)[O-])cc1 was what?
active

In this assay, the call recorded for CCN1CCN(S(=O)(=O)c2ccc(Cl)c(C(=O)N(CC)CC(=O)Nc3ccc(OC)cc3)c2)CC1 was what?
active

###

- assay_info: HEp-2 cell cytotoxicity, dose response, cytotoxicity control for RSV inhibitor project, HTS (AID 2410)
- Type: functional
- condition_set: human respiratory syncytial virus
Activity calls are given as the source filed them.
measurement_kind: CC50

CCOC(=O)c1c(C)[nH]c(C(=O)N2CCc3cc(OC)c(OC)cc3C2)c1C	34.8 µM (active)
Cc1cc2cc3c(cc2nc1SCC(=O)N1c2ccccc2CC1C)OCO3 (centres undefined)	34 µM (active)
O=C(CCNC(=O)c1ccc(Br)cc1)NC1CCCc2ccccc21 (centres undefined)	43.7 µM (active)

Using the record for Cc1ccc(C(C)NC(=O)/C(C#N)=C\c2c(C)[nH]c3ccccc23)cc1 (centres undefined) , state its measured CC50.
19.4 µM (active)
